measured_on: Man(a1-6)Man
method_description: glycan array binding signal (z-score within array); higher = stronger binding
conditions_used: glycan notation: IUPAC condensed, linker removed
This excerpt belongs to a sample that is enriched for the strongest signals.
What glycan array binding signal (z-score) was measured for each of the following?

Lab note: Tectonin 2 (Laccaria bicolor) (protein) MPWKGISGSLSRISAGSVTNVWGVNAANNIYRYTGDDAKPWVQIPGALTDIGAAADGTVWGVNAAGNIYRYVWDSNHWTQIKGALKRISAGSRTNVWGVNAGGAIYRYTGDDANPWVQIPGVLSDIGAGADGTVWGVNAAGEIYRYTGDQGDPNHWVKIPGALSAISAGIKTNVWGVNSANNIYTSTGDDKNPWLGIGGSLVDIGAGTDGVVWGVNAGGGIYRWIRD gave glycan array binding signal (z-score) of -0.438

Lab note: CTLY 1 (Homo sapiens), Q6ZS10 (protein) AITCPEGWLPFEGKCYYFSPSTKSWDEARMFCQENYSHLVIINSFAEHNFVAKAHGSPRVYWLGLNDRAQEGDWRWLDGSPVTLSFWEPEEPNNIHDEDCATMNKGGTWNDLSCYKTTYWICERKGLNDIFEAQKIEWHE gave glycan array binding signal (z-score) of -0.228

Lab note: Cohesin-hMARCO (Homo sapiens) (protein) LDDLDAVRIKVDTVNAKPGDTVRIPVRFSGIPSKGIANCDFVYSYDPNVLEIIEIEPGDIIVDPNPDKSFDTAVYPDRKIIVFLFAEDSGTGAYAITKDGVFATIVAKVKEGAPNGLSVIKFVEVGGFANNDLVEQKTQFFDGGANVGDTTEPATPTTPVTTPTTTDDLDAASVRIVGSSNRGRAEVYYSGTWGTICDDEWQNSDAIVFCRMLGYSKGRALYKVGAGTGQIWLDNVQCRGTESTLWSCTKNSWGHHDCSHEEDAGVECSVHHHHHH gave glycan array binding signal (z-score) of 3.28

Lab note: Gal 8 (Mus musculus), Q9JL15 (protein) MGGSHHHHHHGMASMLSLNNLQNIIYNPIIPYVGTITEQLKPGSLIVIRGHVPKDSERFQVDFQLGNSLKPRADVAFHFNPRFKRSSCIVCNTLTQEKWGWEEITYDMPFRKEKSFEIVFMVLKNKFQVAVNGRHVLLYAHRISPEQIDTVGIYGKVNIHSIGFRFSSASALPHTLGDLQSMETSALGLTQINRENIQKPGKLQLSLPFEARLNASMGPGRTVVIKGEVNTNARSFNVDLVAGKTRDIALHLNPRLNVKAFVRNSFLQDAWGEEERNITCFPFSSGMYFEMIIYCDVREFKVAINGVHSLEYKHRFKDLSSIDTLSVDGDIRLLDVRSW gave glycan array binding signal (z-score) of -0.51

Lab note: EULS2 M4 (Oryza sativa) (protein) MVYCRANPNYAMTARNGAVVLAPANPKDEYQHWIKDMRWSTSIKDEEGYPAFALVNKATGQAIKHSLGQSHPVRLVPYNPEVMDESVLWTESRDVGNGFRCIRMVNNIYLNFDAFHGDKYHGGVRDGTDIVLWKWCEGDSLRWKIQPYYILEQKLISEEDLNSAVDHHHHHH gave glycan array binding signal (z-score) of 0.713
